assay: Reactivity index (RI) between compound and carrageenan, viscosity change (Test Examples 2, 10); type: physicochemical; conditions: Test Example 2; uncoated compound, 10 ppm in 1 mass% carrageenan, vs methanol sample; 1.1<RI = viscosity decreased
valueKind: RI

Query: Using the record for "O=C(/C=C/c1ccc(O)c(O)c1)O[C@@H]1C[C@](O)(C(=O)O)C[C@@H](O)[C@H]1O" , report its RI.
Response: 4.1

Query: Using the record for "O=C(OC[C@H]1O[C@@H](OC(=O)c2cc(O)c(O)c(OC(=O)c3cc(O)c(O)c(O)c3)c2)[C@H](OC(=O)c2cc(O)c(O)c(OC(=O)c3cc(O)c(O)c(O)c3)c2)[C@@H](OC(=O)c2cc(O)c(O)c(OC(=O)c3cc(O)c(O)c(O)c3)c2)[C@@H]1OC(=O)c1cc(O)c(O)c(OC(=O)c2cc(O)c(O)c(O)c2)c1)c1cc(O)c(O)c(OC(=O)c2cc(O)c(O)c(O)c2)c1" , report its RI.
Response: 2.5

A. O=c1c(O)c(-c2ccc(O)c(O)c2)oc2cc(O)cc(O)c12
B. Oc1ccc(C=Cc2cc(O)cc(O)c2)cc1
Query: Sort A and B by RI descending and give the first. Use the label to indicate which entry you chose.
Response: B
(B: 3.5, A: 2.2)
